Values were extracted from patent US6444683B2.

# TARGET UNDER TEST: human prostate 5α-reductase (Homo sapiens, UniProt P31213)
# Construct: The enzymatic reactions were initiated by addition of human BPH microsomes; from tissue; host or cells: human benign prostatic hyperplasia (BPH) tissue, microsomal fraction
# Sequence (P31213 whole entry): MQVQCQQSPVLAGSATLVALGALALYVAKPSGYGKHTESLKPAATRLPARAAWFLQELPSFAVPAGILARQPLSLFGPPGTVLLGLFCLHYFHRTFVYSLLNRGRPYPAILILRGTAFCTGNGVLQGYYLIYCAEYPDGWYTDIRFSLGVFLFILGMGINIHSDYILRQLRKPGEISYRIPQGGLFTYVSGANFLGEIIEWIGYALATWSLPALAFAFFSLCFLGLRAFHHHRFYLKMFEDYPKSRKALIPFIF
# EXPERIMENT DESCRIPTION: Inhibition of human prostate 5α-reductase in BPH microsomes (conversion of [7-3H]-testosterone to DHT)
# Type: biochemical

| COMPOUND | READOUT UNIT | IC50 |
| --- | --- | --- |
| CC(C)(C)NC(=O)[C@H]1CC[C@H]2[C@@H]3CC[C@H]4NC(=O)C=C[C@]4(C)[C@H]3CC[C@]12C [Finasteride, reference compound] | nM | 33 |
| C[C@]12CC[C@H]3[C@@H](CCC4=CC(=O)CC[C@@]43C)[C@@H]1CC[C@@H]2n1ccnc1 | nM | 765 |

----------
Recorded melting point values for a group of compounds are listed next.
READOUT NAME: melting point

| SMILES NOTATION | READOUT NAME | RESULT |
| --- | --- | --- |
| CC(=O)O[C@H]1CC[C@@]2(C)C(=CC[C@H]3[C@@H]4CC[C@@H](n5cccn5)[C@@]4(C)CC[C@@H]32)C1 | melting point | 238 to 240 °C |
| CC(=O)O[C@H]1CC[C@@]2(C)C(=CC[C@@H]3[C@@H]2CC[C@]2(C)C(n4ccnn4)=CC[C@@H]32)C1 | melting point | 158 to 160 °C |
| CC(=O)O[C@H]1CC[C@@]2(C)C(=CC[C@@H]3[C@@H]2CC[C@]2(C)C(n4cccn4)=CC[C@@H]32)C1 | melting point | 159 to 161 °C |
| C[C@]12CC[C@H](O)CC1=CC[C@@H]1[C@@H]2CC[C@]2(C)C(n3cccn3)=CC[C@@H]12 | melting point | 197 to 199 °C |
| C[C@]12CC[C@H]3[C@@H](CC=C4C[C@@H](O)CC[C@@]43C)[C@@H]1CC[C@@H]2n1ccnc1 | melting point | 255 to 258 °C |
| C[C@]12CC[C@H](O)CC1=CC[C@@H]1[C@@H]2CC[C@]2(C)C(n3cnnn3)=CC[C@@H]12 | melting point | 200 to 204 °C (dec.) |
| C[C@]12CC[C@H](O)CC1=CC[C@@H]1[C@@H]2CC[C@]2(C)C(n3nccn3)=CC[C@@H]12 | melting point | 176 to 177 °C |
| CC(=O)O[C@H]1CC[C@@]2(C)C(=CC[C@@H]3[C@@H]2CC[C@]2(C)C(n4nccn4)=CC[C@@H]32)C1 | melting point | 154 to 155 °C |
| C[C@]12CC[C@H](O)CC1=CC[C@@H]1[C@@H]2CC[C@]2(C)C(n3cncn3)=CC[C@@H]12 | melting point | 185 to 189 °C (dec.) |
| C[C@]12CC[C@H](O)CC1=CC[C@@H]1[C@@H]2CC[C@]2(C)C(n3ncnn3)=CC[C@@H]12 | melting point | 195 to 198 °C |
| C[C@]12CC[C@H]3[C@@H](CC=C4C[C@@H](O)CC[C@@]43C)[C@@H]1CC[C@@H]2n1cncn1 | melting point | 246 to 248 °C |
| CC(=O)O[C@H]1CC[C@@]2(C)C(=CC[C@@H]3[C@@H]2CC[C@]2(C)C(n4ncnn4)=CC[C@@H]32)C1 | melting point | 155 to 156 °C |
